Data provenance: patent US11878967B2

Reported Water uptake levels values follow for various compounds
# protocol.summary: Water Vapour Sorption isotherm (25° C.), DVS system from SMS
# Type: physicochemical
# experimental.parameters: relative humidity range 90-98% rh
Counter-ions that a name gives are not always drawn.

Worked set:
INSERT INTO results (compound, measured_property, reported_value) VALUES
  ('C=CC(=O)N1CCC(F)(CNc2ncnc(N)c2-c2ccc(Oc3ccccc3)cc2)CC1 [Fumarate-NF1]', 'Water uptake levels', '≥ 5 % m/m'),
  ('C=CC(=O)N1CCC(F)(CNc2ncnc(N)c2-c2ccc(Oc3ccccc3)cc2)CC1 [Free base form A1]', 'Water uptake levels', '≤ 2 % m/m'),
  ('C=CC(=O)N1CCC(F)(CNc2ncnc(N)c2-c2ccc(Oc3ccccc3)cc2)CC1 [Free base form A2]', 'Water uptake levels', '≤ 2 % m/m'),
  ('C=CC(=O)N1CCC(F)(CNc2ncnc(N)c2-c2ccc(Oc3ccccc3)cc2)CC1 [HBr-NF2]', 'Water uptake levels', '≥ 5 % m/m'),
  ('C=CC(=O)N1CCC(F)(CNc2ncnc(N)c2-c2ccc(Oc3ccccc3)cc2)CC1 [Oxalate-NF1]', 'Water uptake levels', '≤ 5 % m/m');

Q: Query Water uptake levels for C=CC(=O)N1CCC(F)(CNc2ncnc(N)c2-c2ccc(Oc3ccccc3)cc2)CC1 [HCl-NF1]
Result: ≤ 5 % m/m

Q: Query Water uptake levels for C=CC(=O)N1CCC(F)(CNc2ncnc(N)c2-c2ccc(Oc3ccccc3)cc2)CC1 [Maleate-NF1]
Result: ≤ 5 % m/m

Q: Query Water uptake levels for C=CC(=O)N1CCC(F)(CNc2ncnc(N)c2-c2ccc(Oc3ccccc3)cc2)CC1 [HBr-NF1]
Result: ≤ 5 % m/m

Q: Query Water uptake levels for C=CC(=O)N1CCC(F)(CNc2ncnc(N)c2-c2ccc(Oc3ccccc3)cc2)CC1 [Mesylate-NF1]
Result: ≤ 5 % m/m
